# Assay overview: folding enthalpy; higher = less favourable; fluorescence melt of hairpins on a sequencing array, two-state fit
# Condition summary: sodium 0.088 M
Label true for high-side folding enthalpy (at or above -30 kcal/mol) and false for low-side folding enthalpy (below it).

GCGGACGCCGC ((((...)))) = true
GATCGTACGTACGATC ((((((....)))))) = false
GATCTGTCTCAGATC ((((((...)))))) = true
GCTGATGGAAACATCAGC (((((((....))))))) = false
GACTGTCCGAAAGGAGTC (((..(((....)))))) = true
GACTTCGGAAACGAGGTC (((.(((....))).))) = false
GGTGCTGGAAACGGCATC (.(((.(....).))).) = true
GATCTTTCGAAAGATC ((((((....)))))) = false

Check this sequence for folding enthalpy at or above -30 kcal/mol: GCTCACGGAAACGTAAGC (((.(((....))).))) true

Entry GAGTCCGAAAGGAGCCTC ((((((....)))..))) please true

###

# Assay overview: folding enthalpy; higher = less favourable; fluorescence melt of hairpins on a sequencing array, two-state fit
# Condition summary: sodium 0.088 M
Label criterion met for high-side folding enthalpy (at or above -20 kcal/mol) and criterion not met for low-side folding enthalpy (below it).

GTGATTGAAAAATCAC ((((((....)))))) = criterion not met
GGTGGTGGAAACGCCACC (((((.(....).))))) = criterion not met
GATCTGTGCGCAGATC ((((((....)))))) = criterion not met
GCTACGCGAAAGCTGAGC (((..((....))..))) = criterion met
GCGCAGCGAAAGCTAGGC ((..(((....)))..)) = criterion met

Check this sequence for folding enthalpy at or above -20 kcal/mol: GGAACGGGAAACCGTTTC (.(((((....))))).) criterion not met

Entry GCGCAGCGAAAGCGGGGC ((.(.((....)).).)) please criterion met

Entry GTAGTCGAAAGACTGTAC ((((((....)))..))) please criterion met

Entry GATCACAGCGGTGATC ((((((....)))))) please criterion not met

Entry GTTGCACCGAAAGGTAAC (((..(((....)))))) please criterion met

Entry GCGAAGGGAAACCTCCGC (((.(((....))).))) please criterion not met

###

# Assay overview: melting temperature; fluorescence melt of hairpins on a sequencing array, two-state fit, raised by 9.35 °C to match UV melts
# Condition summary: sodium 0.088 M
Assay metric: Tm (°C)
Respond with the bare value in °C.

Example entries begin here.
GGTTTCGAAAGAAGTACC ((((((....)))..))) = 29.8
GGTCTCCGAAAGGAACC (((.(((....)))))) = 45.2
GGATCCGAAAGGAAGTCC ((((((....)))..))) = 29.5
GTCGAAGCGAAAGCTGAC (((..(((....)))))) = 46.5
GGCCTCGAAAGAGTGCC ((((((....))).))) = 58.2

Which value of Tm has been reported for GCTGGACGAAAGTCAGC (((.(((....)))))) in the records? 56.1

Entry GGTGAATCGAAAGATACC (((..(((....)))))) please 29.8

Entry GGTGGGAAACCACC (((((....))))) please 62.4

Entry GGAAGCGAAAGCTCGTCC ((((((....)))..))) please 29.5

Entry GGGCGGCGAAAGCCCCC (((.(((....)))))) please 65.6

Entry GCGAGGGTCGC ((((...)))) please 62

Entry GATCTCGAATGAGATC ((((((....)))))) please 57.5

###

# Assay overview: melting temperature; fluorescence melt of hairpins on a sequencing array, two-state fit, raised by 9.35 °C to match UV melts
# Condition summary: sodium 0.088 M
Label Criterion met for high-side Tm (at or above 50 °C) and Criterion not met for low-side Tm (below it).

Check this sequence for Tm at or above 50 °C: CGAGCGGAAACGCGGTCG ((((((....)))..))) Criterion met

Entry GCCTAGCGAAAGCGTGGC (((..((....))..))) please Criterion met

Entry GCAGTAGGAAACTATTGC (((.(((....))).))) please Criterion not met

Entry GCTAGGCGAAAGCTTTGC ((.(.((....)).).)) please Criterion not met

Entry GATCGGTCGACCGATC ((((((....)))))) please Criterion met

Entry CGCCGCGGAAACGCCGCG (((.(((....))).))) please Criterion met

Entry GCTGCTGGAAACAACAGC ((((.((....)).)))) please Criterion not met

Entry GATTGACCGAAAGGTATC (((..(((....)))))) please Criterion not met

Entry GCGGACCACCGC ((((....)))) please Criterion met

Entry GGTCTCGAAAGAGATACC ((((((....)))..))) please Criterion not met

###

Below: a set of entries, each annotated with reported Tm.
# Assay overview: melting temperature; fluorescence melt of hairpins on a sequencing array, two-state fit, raised by 9.35 °C to match UV melts
# Condition summary: sodium 0.088 M
Respond with the bare value in °C.

GATCTGTAGCAGATC ((((((...)))))) = 47.3
GCTGACGGAAACGTCAAC (.(((((....))))).) = 43.2
GATCTTGAGTAAGATC ((((((....)))))) = 40.4
GAGGAAGGAAACTTCCCC (.(((((....))))).) = 35.2
GCCATTGAAAAATGGC ((((((....)))))) = 58.4

Which value of Tm has been reported for GTAACGGGAAACCGTCAC ((.((((....)))).)) in the records? 35.7

Entry GTTTGGAAACAAAC (((((....))))) please 45.6

Entry GTGAGGTCGAAAGACCAC (((..(((....)))))) please 48.9

Entry GCTAGCGAAAGCTGTAGC ((((((....)))..))) please 43.1

Entry GCTTTTCGAAAGAAGAGC (((.(((....))).))) please 47.4

Entry GATCGCCGATGCGATC ((((((....)))))) please 66.6

Entry GGCGCAGCGAAAGCTGCC (((..(((....)))))) please 52.6

Entry GCGCCGCGAAAGCAACGC (((..((....))..))) please 51.1

Entry GATGCCGGAAACGACATC ((((.((....)).)))) please 48.2

Entry GGCTCGCCGAAAGGCGCC (((..(((....)))))) please 35.7

Entry GATCGCGGAAACGTGATC ((((.((....)).)))) please 57.5

Entry GATCGATTTGTCGATC ((((((....)))))) please 55.5

Entry GGTGTCTCGAAAGAGACC (((..(((....)))))) please 49.4

Entry GATCTACGGATAGATC ((((((....)))))) please 37.8

Entry CGCGGAAATGTCCGCG ((((((....)))))) please 69.1

Entry GAAGCCGAAAGGCAGTTC ((((((....)))..))) please 30

Entry GTAGTGGGAAACCATTGC (.(.(((....))).).) please 24.3

Entry GATCGTTTTAACGATC ((((((....)))))) please 60.8

Entry GGTGAAGGAAACTTCACC (((((((....))))))) please 63

Entry GGCCATGGAAACACAGCC (((..((....))..))) please 27.6

Entry GCAGCACGAAAGTGTGC (((.(((....)))))) please 55.7

Entry GATCTAGCAATAGATC ((((((....)))))) please 47.6

Entry GACTTAACGAAAGTTGTC (((..(((....)))))) please 32.2

Entry GGCGTACGAAAGTAAGCC (((.(((....))).))) please 59.3

Entry GATCGATATCTCGATC ((((((....)))))) please 51

Entry GTATTAGGAAACTAATGC (.(((((....))))).) please 34.2

###

# Assay overview: melting temperature; fluorescence melt of hairpins on a sequencing array, two-state fit, raised by 9.35 °C to match UV melts
# Condition summary: sodium 0.088 M
Assay metric: Tm
Answer with the figure and its unit, nothing else.

Which value of Tm has been reported for GCCAAGCGAAAGCCGGGC (((..((....))..))) in the records? 57.7 °C

###

# Assay overview: melting temperature; fluorescence melt of hairpins on a sequencing array, two-state fit, raised by 9.35 °C to match UV melts
# Condition summary: sodium 0.088 M
Assay metric: Tm (°C)
Respond with the bare value in °C.

GAGGACGAAAGTCGGCTC ((((((....)))..))) = 45.6
GAGGCTACGAAAGTACTC (((..(((....)))))) = 23.8
GGACGCCGAAAGGCCTCC (((.(((....))).))) = 44.5
GGATTTGGAAACAGATCC ((((.((....)).)))) = 41.5
GATCCCAATCGGGATC ((((((....)))))) = 61.6

Now, please, on to the next sequence.
Which value of Tm has been reported for GATCTACGAATAGATC ((((((....)))))) in the records? 36.4
